# Tested on: Human immunodeficiency virus 1
# TEST METHOD NOTES: Inhibition of Efavirenz resistant HIV-1 (K103N-Y181C) induced cytopathicity in MT-4 cells.
# Format: functional, organism-based
# ASSAY CONTEXT: Human immunodeficiency virus 1, MT4
// assign Yes if EC50 falls strictly below 5 µM, else No (ties count as No)

Bench note: check whether Cc1cc(C)cc(S(=O)(=O)c2c(C(=O)NCC(=O)NN)[nH]c3ccc(Cl)cc23)c1 shows EC50 below 5 µM
Yes

Bench note: check whether NC(=O)CNC(=O)c1[nH]c2ccc(Cl)cc2c1S(=O)(=O)c1ccccc1 shows EC50 below 5 µM
No

Bench note: check whether Cc1cc(C)cc(S(=O)(=O)c2c(C(N)=O)[nH]c3ccc(Cl)cc23)c1 shows EC50 below 5 µM
Yes

Bench note: check whether Cc1cc(C)cc(S(=O)(=O)c2c(C(=O)NC(C)C(N)=O)[nH]c3ccc(Cl)cc23)c1 (stereo not given) shows EC50 below 5 µM
Yes

Bench note: check whether NC(=O)c1[nH]c2ccc(Cl)cc2c1S(=O)(=O)c1ccccc1 shows EC50 below 5 µM
No

Bench note: check whether Cc1cc(C)cc(S(=O)(=O)c2c(C(=O)NC(C)C(=O)NN)[nH]c3ccc(Cl)cc23)c1 (stereo not given) shows EC50 below 5 µM
Yes

Bench note: check whether Cc1cc(C)cc(S(=O)(=O)c2c(C(=O)NCC(N)=O)[nH]c3ccc(Cl)cc23)c1 shows EC50 below 5 µM
Yes

Bench note: check whether Cc1ccnc2c1NC(=O)c1cccnc1N2C1CC1 shows EC50 below 5 µM
No

Bench note: check whether NNC(=O)c1[nH]c2ccc(Cl)cc2c1S(=O)(=O)c1ccccc1 shows EC50 below 5 µM
No

Bench note: check whether CC(NC(=O)c1[nH]c2ccc(Cl)cc2c1S(=O)(=O)c1ccccc1)C(N)=O (stereo not given) shows EC50 below 5 µM
No

###

# TEST METHOD NOTES: Selectivity index (Ratio of CC50/EC50).
# Assay type: functional
Classification field: y = Ratio at or over 5000; n = Ratio under 5000.

Dear colleague, could you confirm whether NNC(=O)c1[nH]c2ccc(Cl)cc2c1S(=O)(=O)c1ccccc1 has Ratio at or above 5000?
y

Dear colleague, could you confirm whether CC(NC(=O)c1[nH]c2ccc(Cl)cc2c1S(=O)(=O)c1ccccc1)C(N)=O (stereo not given) has Ratio at or above 5000?
y

Dear colleague, could you confirm whether Cc1cc(C)cc(S(=O)(=O)c2c(C(=O)NC(C)C(N)=O)[nH]c3ccc(Cl)cc23)c1 (stereo not given) has Ratio at or above 5000?
n

Dear colleague, could you confirm whether Cc1cc(C)cc(S(=O)(=O)c2c(C(=O)NC(C)C(=O)NN)[nH]c3ccc(Cl)cc23)c1 (stereo not given) has Ratio at or above 5000?
n

Dear colleague, could you confirm whether Cc1cc(C)cc(S(=O)(=O)c2c(C(N)=O)[nH]c3ccc(Cl)cc23)c1 has Ratio at or above 5000?
n

Dear colleague, could you confirm whether NC(=O)c1[nH]c2ccc(Cl)cc2c1S(=O)(=O)c1ccccc1 [L-737126] has Ratio at or above 5000?
y

Dear colleague, could you confirm whether Cc1cc(C)cc(S(=O)(=O)c2c(C(=O)NCC(=O)NN)[nH]c3ccc(Cl)cc23)c1 has Ratio at or above 5000?
y
